Entry source: patent US20150140169

Target: T1, alpha-s1 casein from Bos taurus
T1 chain: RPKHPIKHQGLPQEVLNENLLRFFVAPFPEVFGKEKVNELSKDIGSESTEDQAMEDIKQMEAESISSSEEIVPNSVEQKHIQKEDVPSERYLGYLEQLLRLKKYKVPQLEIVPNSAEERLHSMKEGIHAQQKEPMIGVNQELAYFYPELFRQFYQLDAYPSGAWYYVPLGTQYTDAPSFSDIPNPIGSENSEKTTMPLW
In this section, each of the proteins is paired with its reported αs1 CN, 24 hours, 11° C..
Measured Parameter: αs1 CN, 24 hours, 11° C. (Volume)

- Protein: "camel chymosin variant #139 (F223L) (protein) GKVAREPLTSYLDSQYFGKIYIGTPPQEFTVVFDTGSSDLWVPSIYCKSNVCKNHHRFDPRKSSTFRNLGKPLSIHYGTGSMEGFLGYDTVTVSNIVDPNQTVGLSTEQPGEVFTYSEFDGILGLAYPSLASEYSVPVFDNMMDRHLVARDLFSVYMDRNGQGSMLTLGAIDPSYYTGSLHWVPVTLQQYWQFTVDSVTINGVAVACVGGCQAILDTGTSVLLGPSSDILKIQMAIGATENRYGEFDVNCGNLRSMPTVVFEINGRDYPLSPSAYTSKDQGFCTSGFQGDNNSELWILGDVFIREYYSVFDRANNRVGLAKAI"
  Unit Abbrev: "Volume"
  Assay Value: "2.9e+06"
- Protein: "camel chymosin variant #167 (I297V) (protein) GKVAREPLTSYLDSQYFGKIYIGTPPQEFTVVFDTGSSDLWVPSIYCKSNVCKNHHRFDPRKSSTFRNLGKPLSIHYGTGSMEGFLGYDTVTVSNIVDPNQTVGLSTEQPGEVFTYSEFDGILGLAYPSLASEYSVPVFDNMMDRHLVARDLFSVYMDRNGQGSMLTLGAIDPSYYTGSLHWVPVTLQQYWQFTVDSVTINGVAVACVGGCQAILDTGTSVLFGPSSDILKIQMAIGATENRYGEFDVNCGNLRSMPTVVFEINGRDYPLSPSAYTSKDQGFCTSGFQGDNNSELWVLGDVFIREYYSVFDRANNRVGLAKAI"
  Unit Abbrev: "Volume"
  Assay Value: "8e+06"
- Protein: "bovine chymosin B variant #7 (K221V) (protein) GEVASVPLTNYLDSQYFGKIYLGTPPQEFTVLFDTGSSDFWVPSIYCKSNACKNHQRFDPRKSSTFQNLGKPLSIHYGTGSMQGILGYDTVTVSNIVDIQQTVGLSTQEPGDVFTYAEFDGILGMAYPSLASEYSIPVFDNMMNRHLVAQDLFSVYMDRNGQESMLTLGAIDPSYYTGSLHWVPVTVQQYWQFTVDSVTISGVVVACEGGCQAILDTGTSVLVGPSSDILNIQQAIGATQNQYGEFDIDCDNLSYMPTVVFEINGKMYPLTPSAYTSQDQGFCTSGFQSENHSQKWILGDVFIREYYSVFDRANNLVGLAKAI"
  Unit Abbrev: "Volume"
  Assay Value: "2.8e+06"
- Protein: "camel chymosin variant #166 (I297T) (protein) GKVAREPLTSYLDSQYFGKIYIGTPPQEFTVVFDTGSSDLWVPSIYCKSNVCKNHHRFDPRKSSTFRNLGKPLSIHYGTGSMEGFLGYDTVTVSNIVDPNQTVGLSTEQPGEVFTYSEFDGILGLAYPSLASEYSVPVFDNMMDRHLVARDLFSVYMDRNGQGSMLTLGAIDPSYYTGSLHWVPVTLQQYWQFTVDSVTINGVAVACVGGCQAILDTGTSVLFGPSSDILKIQMAIGATENRYGEFDVNCGNLRSMPTVVFEINGRDYPLSPSAYTSKDQGFCTSGFQGDNNSELWTLGDVFIREYYSVFDRANNRVGLAKAI"
  Unit Abbrev: "Volume"
  Assay Value: "4.2e+06"
- Protein: "camel chymosin variant #151 (D290A) (protein) GKVAREPLTSYLDSQYFGKIYIGTPPQEFTVVFDTGSSDLWVPSIYCKSNVCKNHHRFDPRKSSTFRNLGKPLSIHYGTGSMEGFLGYDTVTVSNIVDPNQTVGLSTEQPGEVFTYSEFDGILGLAYPSLASEYSVPVFDNMMDRHLVARDLFSVYMDRNGQGSMLTLGAIDPSYYTGSLHWVPVTLQQYWQFTVDSVTINGVAVACVGGCQAILDTGTSVLFGPSSDILKIQMAIGATENRYGEFDVNCGNLRSMPTVVFEINGRDYPLSPSAYTSKDQGFCTSGFQGANNSELWILGDVFIREYYSVFDRANNRVGLAKAI"
  Unit Abbrev: "Volume"
  Assay Value: "1.31e+07"
- Protein: "camel chymosin variant #147 (Q288H) (protein) GKVAREPLTSYLDSQYFGKIYIGTPPQEFTVVFDTGSSDLWVPSIYCKSNVCKNHHRFDPRKSSTFRNLGKPLSIHYGTGSMEGFLGYDTVTVSNIVDPNQTVGLSTEQPGEVFTYSEFDGILGLAYPSLASEYSVPVFDNMMDRHLVARDLFSVYMDRNGQGSMLTLGAIDPSYYTGSLHWVPVTLQQYWQFTVDSVTINGVAVACVGGCQAILDTGTSVLFGPSSDILKIQMAIGATENRYGEFDVNCGNLRSMPTVVFEINGRDYPLSPSAYTSKDQGFCTSGFHGDNNSELWILGDVFIREYYSVFDRANNRVGLAKAI"
  Unit Abbrev: "Volume"
  Assay Value: "7e+06"
- Protein: "camel chymosin variant #160 (L295K) (protein) GKVAREPLTSYLDSQYFGKIYIGTPPQEFTVVFDTGSSDLWVPSIYCKSNVCKNHHRFDPRKSSTFRNLGKPLSIHYGTGSMEGFLGYDTVTVSNIVDPNQTVGLSTEQPGEVFTYSEFDGILGLAYPSLASEYSVPVFDNMMDRHLVARDLFSVYMDRNGQGSMLTLGAIDPSYYTGSLHWVPVTLQQYWQFTVDSVTINGVAVACVGGCQAILDTGTSVLFGPSSDILKIQMAIGATENRYGEFDVNCGNLRSMPTVVFEINGRDYPLSPSAYTSKDQGFCTSGFQGDNNSEKWILGDVFIREYYSVFDRANNRVGLAKAI"
  Unit Abbrev: "Volume"
  Assay Value: "1.2e+07"
- Protein: "camel chymosin variant #156 (D290S) (protein) GKVAREPLTSYLDSQYFGKIYIGTPPQEFTVVFDTGSSDLWVPSIYCKSNVCKNHHRFDPRKSSTFRNLGKPLSIHYGTGSMEGFLGYDTVTVSNIVDPNQTVGLSTEQPGEVFTYSEFDGILGLAYPSLASEYSVPVFDNMMDRHLVARDLFSVYMDRNGQGSMLTLGAIDPSYYTGSLHWVPVTLQQYWQFTVDSVTINGVAVACVGGCQAILDTGTSVLFGPSSDILKIQMAIGATENRYGEFDVNCGNLRSMPTVVFEINGRDYPLSPSAYTSKDQGFCTSGFQGSNNSELWILGDVFIREYYSVFDRANNRVGLAKAI"
  Unit Abbrev: "Volume"
  Assay Value: "1.71e+07"
